System: UACC-257 melanoma
Assay: NCI-60 one-dose screen, 48 h (100 = growth as untreated, 0 = no growth, -100 = all killed)
Details: 10 µM unless noted
The panel holds about 83,000 compounds, 20% with a hit somewhere; the sample as a whole holds those more often.
growth strictly under 70% means Satisfied; at 70% or over means Not satisfied.

[in] is_below(growth, 70%) for Cc1cc(C(NC(=O)CCCCCNc2cccc3c2C(=O)N(C2CCC(=O)NC2=O)C3=O)c2cccnc2)c(O)c2ncccc12 (stereo unspecified) ?
[out] Satisfied

[in] Is it true that growth reported for `COC(=O)c1ccc(NC(=S)N2CCc3ccc([N+](=O)[O-])cc3C2)cc1O` is less than 70%?
[out] Not satisfied

[in] Strictly below 70% in growth? `O=C1c2c(c3c4cc(Br)ccc4[nH]c3c3ccc4ccccc4c23)C(=O)N1CCO`
[out] Not satisfied

[in] Below 70% on growth? Entry COC1CCN(Cc2ccc3c(NNC(=O)c4cnccn4)nc4cc(F)ccc4n23)C1 (stereo unspecified)
[out] Satisfied

[in] growth under 70%? Item: `CN(C)c1ccc(/C=C2\Cc3c(F)ccc(Br)c3C2=O)cc1`
[out] Not satisfied

====

System: SK-MEL-5 melanoma
Assay: NCI-60 one-dose screen, 48 h (100 = growth as untreated, 0 = no growth, -100 = all killed)
Conditions: 10 µM unless noted
The panel holds about 83,000 compounds, 20% with a hit somewhere; the sample as a whole holds those more often.
Can you tell me growth for the items I'm about to list?
Provide only the numeric value, understood in %.

Reading of growth for `COc1cc(/C=C/C(=O)c2cc(OC)c(OC)c(OC)c2)ccc1OCc1ccc(F)cc1` with SK-MEL-5 melanoma: 58.7

Summary: `Cc1sc2c(c1C)c(=O)nc1c(-c3nc(-c4ccc(F)cc4)no3)n[nH]n12` , SK-MEL-5 melanoma, growth = 107

The reported SK-MEL-5 melanoma growth of `COc1cc(/C=C/C(=O)c2cc(OC)c(OC)c(OC)c2)ccc1Oc1nc(NCCO)nc(N2CCOCC2)n1` is 3.03

Lab entry: SK-MEL-5 melanoma assay, compound `C#Cc1nc(C2=C(C)/C(=N/OCc3ccccc3)CC2)cs1` , growth = 85.7

// returns growth for `N#Cc1c(-c2ccc(Cl)cc2)nc(SCc2ccccc2)nc1N1CCNCC1` with SK-MEL-5 melanoma; value = 84.5

====

System: RPMI-8226 leukemia
Assay: NCI-60 one-dose screen, 48 h (100 = growth as untreated, 0 = no growth, -100 = all killed)
Settings: 10 µM unless noted
Experimental: Growth inhibition of the RPMI-8226 human tumor cell line is measured as a screen for anti-cancer activity. Cells are grown in 96 well plates and exposed to the test compound for 48 hours. Compounds are tested at a single concentration, which is 10^-5 M for most compounds. The reported endpoint is percent growth (GI% or GIPRCNT), where numbers from 0 - 100% represent growth inhibition, and numbers from -100% - 0 represent cell death. For example, a value of 40 represents 60% growth inhibition. […]
Compounds without any hit were thinned out: in the full panel of roughly 83,000, 20% have a hit.
I'd appreciate it if you could supply growth values for the items below.
Answer in %, number only, no unit symbol.

Looking up `CCOC(=O)c1c(Nc2ccccc2)nn2c(N)c(C#N)c(-c3ccccc3)nc12` , I found its growth recorded as 68.8

growth for `Fc1ccc(-c2nc(C(Cl)Cl)nc3cc(-c4ccccc4)nn23)cc1` is 8.68

The measured growth associated with `CN(C)CCCNc1c2ccc(Cl)cc2nc2c1oc1ccccc12` reads -21.1

Entry `O=C1c2c(c3c4cccnc4[nH]c3c3ccc4ccccc4c23)C(=O)N1CCO` , growth reported as 72.7

Query `CN(C)CCCOc1c2ccc(Cl)cc2nc2c1oc1ccccc12` yields growth of -22.1

// `CCOC(=O)c1csc(NC(=O)CSc2nc3sc4c(c3c(=O)n2-c2ccc(Cl)cc2)CCCC4)n1` : growth value = 92.5

Form: compound = `COc1ccc(NC2=C(Cl)C(=O)C(C)=C(C)C2=O)cc1OC` ; growth = 88.7

====

Tested on: HOP-92 NSCLC
Experiment: NCI-60 one-dose screen, 48 h
Conditions: 10 µM unless noted
Compounds without any hit were thinned out: in the full panel of roughly 83,000, 20% have a hit. Active and inactive are the calls of the source. The calls were made as follows: active = growth percent below 10; inactive = the rest.
API: response.call in active, inactive

[in] Give the logged outcome of this assay for the following compound: `COc1cc(/C=C/C(=O)c2ccc(F)cc2)ccc1Oc1nc(NCCO)nc(N2CCOCC2)n1`
[out] inactive

[in] Please share the test call associated with `COc1ccc(C(=O)/C=C/c2ccc(Oc3nc(NCCO)nc(N4CCOCC4)n3)c(OC)c2)cc1` .
[out] inactive

[in] Tell me the assay call for `O=C(N/N=C/c1ccc(Cl)s1)c1[nH]c2ccc(Br)cc2c1-c1ccccc1` please.
[out] inactive

[in] What did this assay record as the result for COc1cc2nc(-c3ccc(C)cc3)cc(OCCCNCC3CCCO3)c2cc1OC (stereo unspecified) ?
[out] inactive

[in] Name the outcome recorded for `Nc1c(C(=O)Nc2ccc(C(F)(F)F)cc2)sc2nc(-c3cnccn3)cc(-c3cccs3)c12` in the assay.
[out] active

[in] How did this test come out for `CCOC(=O)c1c(NC(=O)c2cccc(C(F)(F)F)c2)sc2cc(O)ccc12` ?
[out] inactive

[in] Identify the outcome logged in this assay for the compound shown: `COc1ccc(/C=N/Nc2ccnc3cc(Cl)ccc23)cc1Cl`
[out] active

[in] Fill in: this test's call for `CN1CCc2c(sc3ncnc(N/N=C/c4ccc(Cl)c(Cl)c4)c23)C1` is ___
[out] inactive

[in] Called result for O=C1Nc2ccccc2Oc2ccc(S(=O)(=O)CC3CO3)cc21 (stereo unspecified)
[out] inactive

[in] Which result was noted for this compound in the test: `Nc1c(C(=O)c2ccc(Br)cc2)oc2nc(-c3cnccn3)cc(-c3cccs3)c12`
[out] inactive

[in] What is the recorded call for this compound in the test? `O=C(O)CCCCCN1C(=O)/C(=C/c2ccc(O)c(O)c2)SC1=S`
[out] inactive

[in] Outcome logged for `CC(=O)Oc1ccccc1C(=O)Nc1ccc(C(=O)/C=C/c2cccs2)cc1` in this assay:
[out] inactive

[in] So what was the verdict on `O=C(N/N=C/c1ccc(Br)s1)c1[nH]c2ccc(Br)cc2c1-c1ccccc1` in this test?
[out] inactive

[in] For `Clc1ccc2c(OCCCN3CCOCC3)c3oc4ccccc4c3nc2c1` , which call appears in the assay record?
[out] inactive

[in] Record request — test call for COC(=O)C(Cc1ccccc1)NS(=O)(=O)/N=C1\NC(=O)NC1=C(Cl)Cl (stereo unspecified)
[out] inactive

[in] For `COc1ccccc1C(=O)CSc1nc(Nc2ccc(S(N)(=O)=O)cc2)c2ccccc2n1` , which call appears in the assay record?
[out] inactive

[in] Please indicate how the test categorized O=C(c1ccc(Cl)cc1)C1[C@H](c2ccc(Cl)cc2)[C@@H](c2ccccc2)NC12C(=O)Nc1ccc(Br)cc12 (stereo partly specified) .
[out] active

[in] Test call for this compound, please: `CCN(CC)c1ccc(C=O)c(OCc2cn(CC(=O)Nc3ccc(Cl)cc3)nn2)c1`
[out] inactive

[in] Hello, I am checking results. What call was entered for `COC(=O)c1ccc(NC(=S)N2CCc3ccc([N+](=O)[O-])cc3C2)cc1O` ?
[out] inactive

[in] Lab log entry: `COc1ccc(N/N=C/c2c(-c3ccc(S(C)(=O)=O)cc3)nc3ccccn23)cc1` — outcome as called in the assay?
[out] inactive

[in] // outcome(item) with item = `CCCSc1nc(Nc2ccc(/C(C)=N\NC(N)=S)cc2)c(C#N)c(-c2ccc(OC)cc2)n1`
[out] active
